System: KM12 colon
assay.overview: NCI tumour cell line growth inhibition, 48 h
observed.property: TGI

1. CCCSc1ccc2nc(NC(=O)OC)[nH]c2c1 : > 100 µM
2. CO[C@@H]1C[C@H]2[C@@H]3CC[C@H]([C@H](C)CO)[C@@]3(C)CC[C@@H]2[C@@]2(C)CC[C@H]3C[C@]312 : 35.9 µM
3. Cc1ccc(NC(=O)/C(CC2N=c3c(ccc4c(O)c5ccccc5c(O)c34)=NC2O)=N/NC(C)(C)C)cc1 (configuration not stated) : > 100 µM
4. COc1ccc(C23OCC(Cc4cc(OC)c(OC)cc42)C3COC(C)=O)cc1OC (configuration not stated) : > 100 µM

Consider the additional molecule presented here.
Query Cc1c([C@H](C(Cl)Cl)[C@H](O)[C@H]2C[C@H](C)C(=O)O2)ccc2c1C(=O)[C@H]1[C@H]2C[C@@H](Br)[C@@]23O[C@@H](CO[C@H]2O)CC13C (some centres not stated) yields TGI of > 16.6 µM

---

Tested on: SW-620 colon
assay.overview: NCI tumour cell line growth inhibition, 48 h
observed.property: TGI

1) COc1ccc(C(=C[N+](=O)[O-])c2ccc(OC)cc2)cc1 : > 73.3 µM
2) CCCSc1ccc2nc(NC(=O)OC)[nH]c2c1 : > 100 µM
3) O=C(Nc1ccc(-n2cc(-c3ccncc3)c(-c3ccc(O)c(Cl)c3)n2)cc1)c1cc(C(F)(F)F)cc(C(F)(F)F)c1 : > 25 µM
4) CC1=NCC[N+]1(CCc1ccccc1)Cc1ccccc1 (centres undefined) : > 100 µM
5) N#C/C(=C\c1cn(Cc2ccccc2)c2ccccc12)C(=O)Nc1ncc(Cc2ccccc2Cl)s1 : 4.2 µM
6) O=C1NC2c3c(I)sc(I)c3/C(=N\O)C2O1 (centres undefined) : 60.6 µM
7) COc1ccc(-c2csc(-n3c(-c4ccccc4)nc4c(Br)cc(Br)cc4c3=O)n2)cc1 : > 100 µM
8) CC(=O)[CH-]C(=O)c1ccccc1.CC(=O)[CH-]C(=O)c1ccccc1.CCN(CC)CC[O-].CCN(CC)CC[O-].Cl.[Hf+4] : > 100 µM

Query COc1ccc(N2C(=O)C3c4[nH]c5ccccc5c4C4CCC(c5ccccc5)CC4C3C2=O)cc1 (centres undefined) yields TGI of > 100 µM

Query COC(=O)[C@@H]1C[C@@]23CCCN4CC[C@@]5(c6cccc(OC)c6N(C=O)[C@]15CC2)[C@@H]43 yields TGI of > 100 µM

Query CC(C)=CCCC(C)[C@H]1CC(O)C2(C)C3=CCC4C(C)(C)[C@@H](O)CC[C@]4(C)C3=CC[C@]12C (some centres undefined) yields TGI of 14.7 µM

Query CCCCC1CC(c2ccc(Cl)cc2)=NO1 (centres undefined) yields TGI of > 100 µM

Query COc1ccc2c(c1)C1C(CO2)C(c2ccccc2)=NN1c1ccccc1 (centres undefined) yields TGI of > 100 µM

---

Catalogue of compounds with associated GI50
Tested on: SR leukemia
assay.overview: NCI tumour cell line growth inhibition, 48 h

Answered examples (5):
1. O=C(Nc1ccc(-n2cc(-c3ccncc3)c(-c3ccc(O)c(Cl)c3)n2)cc1)c1cc(C(F)(F)F)cc(C(F)(F)F)c1 : 8.79 µM
2. CCCSc1ccc2nc(NC(=O)OC)[nH]c2c1 : 0.0482 µM
3. COc1cc(/C=C/C(=O)Nc2ccc3c(c2)/C(=C\c2cccn2C)C(=O)N3)cc(OC)c1OC : 1.91 µM
4. CCOC(=O)/C=C/C1=C(c2ccsc2)c2ccc(OC)cc2CC1 : 0.156 µM
5. COc1cc(/C=C/C(=O)c2ccc(Nc3nc(Nc4ccc(F)cc4)nc(Nc4ccc(Cl)cc4)n3)cc2)cc(OC)c1OC : 1.03 µM

Query O=C(NC(=S)Nc1ccccn1)c1ccccc1 yields GI50 of > 100 µM

Query COc1ncc(-c2ccc3nccc(C#CCCCCC(=O)O)c3c2)cc1NS(=O)(=O)c1ccc(F)cc1F yields GI50 of 1.67 µM

Query C[CH2][Sn]([CH2]C)([O]C(=O)c1cccc(OC)c1)[O][Sn]([CH2]C)([CH2]C)[O]C(=O)c1cccc(OC)c1 yields GI50 of 26.3 µM

Query COc1cc(C(=O)c2c(-c3ccccc3)oc3c(OC)cccc23)cc(OC)c1O yields GI50 of 0.339 µM

Query COc1ccc(-c2c(-c3cc(OC)c(OC)c(OC)c3)nc3sc(C4CC4)nn23)cc1OC yields GI50 of 3.73 µM

Query O=C(/C=C/c1cc2ccccc2[nH]c1=O)c1ccc(Cl)cc1 yields GI50 of 15.6 µM

Query COC(=O)[C@@H](C)C[C@H](Cc1ccccc1)NC(=O)c1cccc([C@@H](C[C@H](C(C)C)N(C)C(=O)[C@@H](NC(=O)[C@H]2CCCCN2C)C2CC2)OC(C)=O)n1 yields GI50 of 0.00333 µM
